# Tested on: EPHA2
# experimental context: concentration: 1 μM, replicates: in singlicate; n = 1;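 also: KINOMEscan kinase panel screen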

molecule | %Inh (%)
CN1CCN(Cc2ccc(NC(=O)Nc3ccc(N(C)c4ccnc(Nc5ccc(CS(C)(=O)=O)cc5)n4)cc3)cc2)CC1.Cl | 29
CN(C)CCNS(=O)(=O)c1ccc(-c2ccnc3[nH]ccc23)cc1 | 14
COC(=O)Nc1nc2ccc(Oc3ccc(CC(=O)Nc4cc(C(F)(F)F)ccc4F)cc3)cc2[nH]1 | 54
N#CC1(c2cccc(C(=O)Nc3cccc(Oc4ccc5nc(NC(=O)C6CC6)sc5n4)c3)c2)CC1 | 97.1

----------
Recorded %Inh by entry
# Test system: MEK2
# Construct: gene MAP2K2
# experimental context: concentration: 1 μM, replicates: in singlicate; n = 1
test readout: %Inh (%)

molecule | test readout | unit tag | measured value
COc1cc(Nc2ccnc3cc(-c4ccncc4)ccc23)cc(OC)c1OC.Cl | %Inh | % | 0
CN(c1ccc(NC(=O)N2CCN(CCCN3CCOCC3)CC2)cc1)c1ccnc(Nc2ccc(CS(C)(=O)=O)cc2)n1.Cl | %Inh | % | 23
Cc1cccc(Nc2nc(N[C@H]3CCCC[C@H]3N)ncc2C(N)=O)c1.Cl | %Inh | % | 19
O=C(Nc1n[nH]c2nc(-c3cccc(O)c3)ccc12)C1CC1 | %Inh | % | 10
